All figures here come from patent US11306125B2.

test.system: PCSK9 (Homo sapiens)
Construct: purchased
Sequence (Q8NBP7 153-692): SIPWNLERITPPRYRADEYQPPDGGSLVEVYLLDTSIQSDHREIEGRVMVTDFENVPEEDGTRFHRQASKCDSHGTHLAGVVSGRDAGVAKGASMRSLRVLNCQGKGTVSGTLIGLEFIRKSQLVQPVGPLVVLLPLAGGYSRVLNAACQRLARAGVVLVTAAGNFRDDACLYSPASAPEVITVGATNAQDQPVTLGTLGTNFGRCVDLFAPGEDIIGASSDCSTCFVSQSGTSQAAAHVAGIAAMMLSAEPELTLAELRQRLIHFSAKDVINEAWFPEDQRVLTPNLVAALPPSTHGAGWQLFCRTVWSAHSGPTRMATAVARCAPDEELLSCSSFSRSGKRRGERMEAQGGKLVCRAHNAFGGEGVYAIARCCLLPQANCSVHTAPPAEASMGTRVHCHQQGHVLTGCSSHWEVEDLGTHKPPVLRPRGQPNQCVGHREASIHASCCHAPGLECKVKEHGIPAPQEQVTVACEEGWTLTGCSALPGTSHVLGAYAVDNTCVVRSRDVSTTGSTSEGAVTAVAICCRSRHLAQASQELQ
assay.method.text: PCSK9 Alexa FRET Standard TR-FRET assay
Type: binding
experimental.readout: pKi
// pKi is dimensionless: -log10 of concentration (M)

Exercise: Item under review: COc1ccc(C[C@@H]2NC(=O)[C@H]([C@@H](C)O)NC(=O)[C@@H]3[C@@H]4CCN3C(=O)[C@H](Cc3c[nH]c5ccc(F)cc35)NC(=O)[C@H](Cc3cccc(c3)CNC(=O)CO4)NC(=O)[C@@H](C)NC(=O)[C@H](CN)NC(=O)CCC(=O)NCc3ccc(cc3)CCNC(=O)[C@]3(C)CCCN3C2=O)cc1 [Ex-B01] . Reported pKi?
Key: 8.69
